The entries below are paired with their reported TGI.
- Tested on: SR leukemia
- METHOD DESCRIPTION: NCI tumour cell line growth inhibition, 48 h
METRIC: TGI

>>> df
                                   molecule  endpoint_result
0    Cc1nn(C)c2nc3ccc(Cl)cc3c(-c3ccccc3)c12         > 100 µM
1  Nc1n[nH]c2ccc([C@@H]3Nc4cc5[nH]ncc5cc4[C@H]4C5CCC(C5)[C@@H]34)cc12 (stereo partly drawn)         > 100 µM
2  CSc1ncc2c(n1)-c1ccccc1OC2NC(C)(C)C (stereo not drawn)         > 100 µM

* * *

The entries below are paired with their reported TGI.
- System: SF-295 CNS
- METHOD DESCRIPTION: NCI tumour cell line growth inhibition, 48 h
METRIC: TGI

>>> df
                                   molecule  endpoint_result
0            NC(=O)C12CC3CC(CC(Br)(C3)C1)C2         > 100 µM
1  CC1(C)CC2=C(Sc3ccccc3N2)C(=O)C1C(=O)C(=O)Nc1cc(Cl)ccc1Cl (centres undefined)         > 100 µM
2  Cc1nn(C(=O)c2ccncc2)c2c1C(c1cccc([N+](=O)[O-])c1)SC(N)=N2 (centres undefined)          > 10 µM
3            Cc1ccnc(NC(=S)Nc2cccc(Cl)c2)c1         > 100 µM

* * *

- Test system: LXFL 529 NSCLC
- METHOD DESCRIPTION: NCI tumour cell line growth inhibition, 48 h
The entries below are paired with their reported TGI.
METRIC: TGI

>>> df
                                   molecule  metric  endpoint_result
0  Cc1nc2c(sc(=S)n2-c2ccccc2)c2nc3ccccc3n12     TGI         > 100 µM
1  Cc1cc(C)nc(NS(=O)(=O)c2ccc(NC(=O)c3cccn4c(=O)c5ccccc5nc34)cc2)n1     TGI         > 100 µM
2  Nc1ncnc2c1nnn2C1C=C(CO)C(O)C1O (stereo not drawn)     TGI         > 100 µM

* * *

The entries below are paired with their reported TGI.
- Tested on: MOLT-4 leukemia
- METHOD DESCRIPTION: NCI tumour cell line growth inhibition, 48 h
METRIC: TGI

>>> df
                                   molecule      test_system  metric  endpoint_result
0          COC(=O)/C(=C\c1ccco1)P(=O)(OC)OC  MOLT-4 leukemia     TGI         > 100 µM
1  COc1ccc(Oc2ccccc2NC(=O)CNC(=O)c2cccc3ccccc23)cc1  MOLT-4 leukemia     TGI          > 25 µM
2  COc1ccc2c(c1)C(=O)c1c-2n(CCCN)c(=O)c2cc([N+](=O)[O-])ccc12  MOLT-4 leukemia     TGI        < 0.01 µM
3  COc1cc([C@H]2Oc3c(OC)cc(CCCO)cc3[C@@H]2CO)ccc1O  MOLT-4 leukemia     TGI         > 100 µM
4  Cn1c2c(c3ccccc31)CCN1C(=O)C3SC21C1C(=O)N(c2ccccc2)C(=O)C31 (stereo unspecified)  MOLT-4 leukemia     TGI         > 100 µM
5    O=C(N/N=C/c1ccc(Cl)cc1)c1cc(I)cc(I)c1O  MOLT-4 leukemia     TGI         > 100 µM

* * *

- Tested on: SF-539 CNS
- METHOD DESCRIPTION: NCI tumour cell line growth inhibition, 48 h
The entries below are paired with their reported TGI.
METRIC: TGI

                                        mol  metric  endpoint_result
0  CC(=O)[CH-]C(=O)Nc1ccccc1.CC(=O)[CH-]C(=O)Nc1ccccc1.CC[O-].CC[O-].[Ti+4]     TGI         > 100 µM
1  COc1cc2c(cc1-c1coc3cc(OCC=C(C)C)ccc3c1=O)OCO2     TGI         > 100 µM
2        COc1cc2c(cc1C)NC(=O)/C2=C\c1ccncc1     TGI          8.45 µM

* * *

- System: UACC-62 melanoma
- METHOD DESCRIPTION: NCI tumour cell line growth inhibition, 48 h; in the data active = GI50 below about 0.43 µM; inactive = the rest
Outcome codes: 1 (yes) for active, 0 (no) for inactive

>>> print(df.to_string())
                                        mol  class_label
0  COc1ccc2c(c1)C(=O)c1c-2c(N2CCNCC2)nc2ccccc12       0 (no)
1  Cc1ccc(Sc2oc(-c3ccc(C)cc3)nc2[P+](c2ccccc2)(c2ccccc2)c2ccccc2)cc1      1 (yes)
2  COc1ccc2c(c1)C(=O)c1c-2n(CCCN)c(=O)c2cc([N+](=O)[O-])ccc12      1 (yes)

* * *

- Tested on: KM12 colon
- METHOD DESCRIPTION: NCI tumour cell line growth inhibition, 48 h
METRIC: TGI

                                    compound  metric  endpoint_result
 0  C=CCCCOC1[C@H](OCc2ccccc2)C(OCc2ccccc2)C(OC)O[C@@H]1CNC(=O)c1cccc(I)c1 (stereo partly specified)     TGI         > 100 µM
 1           O/N=C1\CCc2nonc2\C1=N/Nc1ccccc1     TGI         > 100 µM
 2  CCOC1OC(=O)[C@H]2[C@@H]1[C@@H]1CC[C@H]2O1 (stereo partly specified)     TGI         > 100 µM
 3  CCN1CCCC(Nc2cc(C)nc(/N=C(/N)Nc3ccc(Cl)c(Cl)c3)n2)C1 (stereo unspecified)     TGI          3.46 µM
 4                C=CCC1(CC)C(=O)NC(=O)NC1=O     TGI         > 100 µM
 5  C[C@@H]1CC[C@@H](C)[C@](C)(CCc2ccoc2)C/C=C\C=C/1C(=O)O     TGI          > 50 µM
 6  CC(=O)c1ccc(N2CCN(C3=CC(=O)c4c(O)ccc(O)c4C3=O)CC2)cc1     TGI         > 100 µM
 7  COC(=O)C#CCC1CCCC1C1SCCS1 (stereo unspecified)     TGI         > 100 µM
 8  CSc1ncc2c(n1)-c1ccccc1OC2NC(C)(C)C (stereo unspecified)     TGI         > 100 µM
 9              COc1ccc(Cc2nc3ccccc3s2)cc1OC     TGI          32.2 µM
10  O=S(=O)(O)c1cc(O)c2c(O)c(N=Nc3cccc4ccccc34)c(S(=O)(=O)O)cc2c1     TGI         > 100 µM
11  CC1C2CC(C/C2=N/O)C1(C)C (stereo unspecified)     TGI         > 100 µM
12  Cc1oc2c(c1C(=O)N1CC[C@@H](N)C1)C(=O)c1c(c(O)c3ccccc3c1O)C2=O     TGI          14.4 µM
13  Oc1nc(N/N=C/c2ccccc2)[nH]c1/C=C1\C=Nc2ccccc21     TGI         > 100 µM
14  Cc1c(C#N)c2nnn(-c3ccccc3)c(=O)n2c1-c1ccccc1     TGI          29.1 µM
15              COc1nc(OC)nc(-c2cccc(F)c2)n1     TGI          31.7 µM

* * *

- Tested on: OVCAR-5 ovarian
- METHOD DESCRIPTION: NCI tumour cell line growth inhibition, 48 h; in the data active means GI50 below about 0.43 µM; inactive means the rest
Outcome codes: 1.0 (active), 0.0 (inactive)

                                   compound  class_label
0  CC1=C(C(=O)Nc2ccc(F)c(Cl)c2)C(c2ccccc2O)NC(=O)N1 (stereo unspecified)          0.0
1  O=C1/C(=C/c2cccc(Br)c2)COc2ccc(O)c(O)c21          0.0
2  Cc1ccc(Sc2oc(-c3ccc(C)cc3)nc2[P+](c2ccccc2)(c2ccccc2)c2ccccc2)cc1          1.0
3  C[C@H]1c2ccccc2CN1CCCOc1cc2c(cc1OCC1CC1)C1(CCCC1)C(N)=N2          0.0
4  NS(=O)(=O)c1cccc(-c2ccc3c(NC(=O)C4CC4)n[nH]c3c2)c1          0.0
5              Nc1ccc(-c2nc3ccc(F)cc3s2)cc1          0.0

* * *

- Tested on: SR leukemia
- METHOD DESCRIPTION: NCI tumour cell line growth inhibition, 48 h
The entries below are paired with their reported TGI.
METRIC: TGI (µM)

                                   compound  censor_symbol  endpoint_result
0  CC(=O)O[C@H]1CN(S(=O)(=O)c2ccc(C)cc2)C[C@@H]1C1CCCCC1              >              100
1  COc1cc(C2CC(=O)Nc3c2cc(Br)c2ccccc32)cc(Br)c1OC (stereo not drawn)              =             1.77
2                               N=C(N)SCCCN              =             23.5
3    CCCCCn1c(=O)c2c(=O)[nH][nH]c2c2ccccc21              >              100
4  COc1ccc(Oc2ccccc2NC(=O)CNC(=O)c2cccc3ccccc23)cc1              >               25
5  COc1cccc2c1[C@H]1CO[C@H]3C4C[C@H](C(=O)O)C([C@@H](C2)N13)N4C (stereo partly drawn)              =             8.55
6  COc1ccc(-c2ccc(/C=N/n3c(COc4ccccc4Cl)n[nH]c3=S)o2)c([N+](=O)[O-])c1              =             76.7
7                        CSc1nc(C#N)c(N)n1C              >              100

This collection of values is drawn from PubChem BioAssay (NCI).
